# measurementTarget: T1, Human full-length (FL) NPR-C (27–541)-10His-Flag (human, UniProt P17342-2 27-540)
# T1 construct: natriuretic peptide receptor C (NPR-C), human, residues 27-541; Primarily a disulphide-bonded dimer (~130 kDa) on non-reducing SDS-PAGE; The tag's end is read from the construct's name (27–541)-10His-Flag; also called natriuretic peptide receptor C; natriuretic peptide receptor type-C; source: expressed and isolated at Peak Proteins, UK; not shown: 10His, C-terminal, kept; Flag, C-terminal, kept
# T1 sequence (looked up): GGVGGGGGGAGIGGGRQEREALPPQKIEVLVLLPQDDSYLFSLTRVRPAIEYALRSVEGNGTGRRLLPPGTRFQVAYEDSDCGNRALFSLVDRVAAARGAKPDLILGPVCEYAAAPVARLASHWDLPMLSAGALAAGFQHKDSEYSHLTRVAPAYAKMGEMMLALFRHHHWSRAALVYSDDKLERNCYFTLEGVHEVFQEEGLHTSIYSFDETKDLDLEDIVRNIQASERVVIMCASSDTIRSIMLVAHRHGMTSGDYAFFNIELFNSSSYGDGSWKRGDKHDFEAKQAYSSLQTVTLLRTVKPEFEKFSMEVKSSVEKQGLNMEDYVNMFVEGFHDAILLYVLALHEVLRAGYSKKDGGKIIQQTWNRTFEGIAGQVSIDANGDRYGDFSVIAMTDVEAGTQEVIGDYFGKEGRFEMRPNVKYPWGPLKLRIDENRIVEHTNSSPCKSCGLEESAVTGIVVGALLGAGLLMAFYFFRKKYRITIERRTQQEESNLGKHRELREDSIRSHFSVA
# experimentDescription: fluorescence polarisation; competition against 15 nM Flu-P19 probe; FL NPR-C 150 nM or ECD NPR-C 400 nM; competitor 4.89 nM-2.5 uM; HEPES buffer, 3% DMSO; Ki computed from IC50 with a web-based converter
# settings: both partners purified
Bridge positions count the residues as written; N and C are the ends. Ends that are not written are not given here.
endpointName: IC50 (nM)

In [3]: df
Out[3]:
                                     binder  numericvalue
0  GLSKGCFGLKLDRIGSMSGLGC (ligand, disulfide 6-22 (inferred)) [C-type natriuretic peptide]           142
